target: Insulin-degrading enzyme (Homo sapiens) (UniProt P14735); assay: cellular IDE Abeta-cleavage inhibition – fluorescence polarization, HEK cells, FAbetaB substrate, primary screen (AID 434962); conditions: at 5.59 µM;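 further: IDE supplied by intact live HEK cells; FP after avidin binding of uncleaved biotin substrate so inhibition keeps polarization high; 0% = DMSO wells and 100% = 60 µM reference IDE inhibitor Ii1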
Sequence (P14735 whole entry, looked up): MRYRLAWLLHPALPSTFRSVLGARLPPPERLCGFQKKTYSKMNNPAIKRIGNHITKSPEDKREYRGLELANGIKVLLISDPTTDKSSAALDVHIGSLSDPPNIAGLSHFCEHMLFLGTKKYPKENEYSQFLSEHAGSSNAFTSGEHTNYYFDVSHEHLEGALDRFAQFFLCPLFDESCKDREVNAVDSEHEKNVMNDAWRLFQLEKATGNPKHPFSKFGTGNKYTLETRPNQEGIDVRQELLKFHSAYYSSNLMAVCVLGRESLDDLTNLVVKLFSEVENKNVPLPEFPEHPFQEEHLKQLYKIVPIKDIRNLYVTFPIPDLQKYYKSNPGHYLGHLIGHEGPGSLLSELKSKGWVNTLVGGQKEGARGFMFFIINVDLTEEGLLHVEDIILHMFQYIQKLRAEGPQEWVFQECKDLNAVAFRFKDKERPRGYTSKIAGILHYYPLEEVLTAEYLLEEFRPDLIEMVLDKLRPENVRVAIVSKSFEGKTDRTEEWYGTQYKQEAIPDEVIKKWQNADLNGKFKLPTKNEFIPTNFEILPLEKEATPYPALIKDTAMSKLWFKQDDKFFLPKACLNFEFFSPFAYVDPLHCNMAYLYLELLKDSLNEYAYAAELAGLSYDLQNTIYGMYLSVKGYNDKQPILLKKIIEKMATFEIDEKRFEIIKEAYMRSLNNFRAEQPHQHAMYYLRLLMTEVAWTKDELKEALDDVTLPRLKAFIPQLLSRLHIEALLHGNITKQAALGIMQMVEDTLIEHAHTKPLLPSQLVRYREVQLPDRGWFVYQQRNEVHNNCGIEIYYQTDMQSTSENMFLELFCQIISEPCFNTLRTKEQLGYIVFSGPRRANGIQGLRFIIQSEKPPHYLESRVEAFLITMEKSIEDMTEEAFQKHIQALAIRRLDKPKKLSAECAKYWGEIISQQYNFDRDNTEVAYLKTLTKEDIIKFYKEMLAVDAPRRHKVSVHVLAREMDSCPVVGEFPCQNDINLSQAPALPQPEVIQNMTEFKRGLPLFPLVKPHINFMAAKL
About 1,300 (0.41%) of roughly 320,000 compounds were called active.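 How the source made its calls: active means percent inhibition above the average of all tested compounds plus 3 SD, set per screening campaign (cut at about 16% in these data); inactive means the rest.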 What follows is part of a selection rich in actives, with near analogues and random picks from the rest.
Answer with one of the outcomes active, inactive

Hi team, can someone confirm the assay call for `O=C(Nc1cccc(NC(=O)N2CCN(c3ccccc3)CC2)c1)N1CCN(c2ccccc2)CC1` ?
inactive

Hi team, can someone confirm the assay call for `Cc1[nH]c2ccccc2c1/C=C(/C#N)C(=O)NC(C)C` ?
inactive

Hi team, can someone confirm the assay call for `CCOc1ccccc1Nc1ccc2nonc2c1[N+](=O)[O-]` ?
inactive

Hi team, can someone confirm the assay call for `FC(F)(F)c1ccc2c3n(nc2c1)CCN=C3c1ccc(Cl)cc1` ?
inactive

Hi team, can someone confirm the assay call for `COc1ccccc1N(C)S(=O)(=O)c1ccc(C(=O)NC2CCCCCC2)cc1` ?
inactive

Hi team, can someone confirm the assay call for `CC(C)OCCCNC(=S)N1CCC(C(=O)c2ccc3c(c2)OCCO3)CC1` ?
inactive

Hi team, can someone confirm the assay call for `COc1cccc2cc(C(N)=O)/c(=N\NC(=O)c3ccccc3)oc12` ?
inactive

Hi team, can someone confirm the assay call for `O=C(O)c1ccccc1C(=O)NC1=NN(c2ccccc2)CC1` ?
inactive

Hi team, can someone confirm the assay call for `O=C(Nc1ccc(Cl)c(Cl)c1)N1CC=C(c2ccccc2)CC1` ?
active

Hi team, can someone confirm the assay call for CC1=CC(C)(C)Nc2ccc(OC(=O)CN3C(=O)C4CCCCC4C3=O)cc21 (stereo unspecified) ?
active

Hi team, can someone confirm the assay call for `O=[N+]([O-])c1c(NCCO)cc(Sc2nc3ccccc3s2)c2nonc12` ?
active

* * *

target: Insulin-degrading enzyme (Homo sapiens) (UniProt P14735); assay: cellular IDE Abeta-cleavage inhibition – fluorescence polarization, HEK cells, FAbetaB substrate, primary screen (AID 434962); details: at 5.59 µM, hits give high values;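 further: IDE supplied by intact live HEK cells; FP after avidin binding of uncleaved biotin substrate so inhibition keeps polarization high; 0% = DMSO wells and 100% = 60 µM reference IDE inhibitor Ii1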
In all, about 320,000 compounds went through this assay and about 1,300 (0.41%) were called active. For the sample, actives were picked, then their nearest neighbours and some compounds at random.
I'd be grateful if you could share measured inhibition for these entries.
Give the value, in units of %, as a plain number.

Lab note: need inhibition for `C[n+]1ccc(/C=C/c2c[nH]c3ccccc23)cc1` on Insulin-degrading enzyme (Homo sapiens) (UniProt P14735), anyone have it?
23.9

Lab note: need inhibition for `N#C/C(=C\c1ccc(O)c(O)c1)C(=O)NCc1ccccc1` on Insulin-degrading enzyme (Homo sapiens) (UniProt P14735), anyone have it?
30.2

Lab note: need inhibition for `O=C(CCc1nnc(Cc2ccc3c(c2)OCO3)o1)NCCc1ccccc1Cl` on Insulin-degrading enzyme (Homo sapiens) (UniProt P14735), anyone have it?
0.48

Lab note: need inhibition for `COc1ccc(OCCCn2cccc2/C=C2/C(=N)N3OC(C)=CC3=NC2=O)cc1` on Insulin-degrading enzyme (Homo sapiens) (UniProt P14735), anyone have it?
1.48

Lab note: need inhibition for `O=C(NC1CCCC1)C(=O)c1c[nH]c2ccccc12` on Insulin-degrading enzyme (Homo sapiens) (UniProt P14735), anyone have it?
3.35

Lab note: need inhibition for `Cc1cccc(C)c1NC(=O)COC(=O)c1ccccc1O` on Insulin-degrading enzyme (Homo sapiens) (UniProt P14735), anyone have it?
3.87

Lab note: need inhibition for `CC(C)(C)C(=O)Nc1c(Br)c(C2CC2)nn1-c1ccccc1` on Insulin-degrading enzyme (Homo sapiens) (UniProt P14735), anyone have it?
0.92

Lab note: need inhibition for `C=CCSc1nc2c(c(=O)[nH]c(=O)n2C)n1Cc1ccccc1` on Insulin-degrading enzyme (Homo sapiens) (UniProt P14735), anyone have it?
-11.6

Lab note: need inhibition for `Cc1ccc(Br)c(NS(=O)(=O)c2cccc(C(=O)N3CCNC(=O)C3)c2)c1` on Insulin-degrading enzyme (Homo sapiens) (UniProt P14735), anyone have it?
-0.69

Lab note: need inhibition for `CCOC(=O)c1nn(-c2cccc(C)c2)cc1C(=O)c1ccccc1` on Insulin-degrading enzyme (Homo sapiens) (UniProt P14735), anyone have it?
-1.22

Lab note: need inhibition for `COc1ccc(N2C(=O)/C(=C\c3ccco3)N=C2SCC(N)=O)cc1Cl` on Insulin-degrading enzyme (Homo sapiens) (UniProt P14735), anyone have it?
6.2

Lab note: need inhibition for `COCCNC(=O)/C(C#N)=C/c1cccc(OCc2ccccc2)c1` on Insulin-degrading enzyme (Homo sapiens) (UniProt P14735), anyone have it?
3.27

Lab note: need inhibition for `O=C(OCC(=O)N1CCCCC1)c1ccc(OC(F)(F)F)cc1` on Insulin-degrading enzyme (Homo sapiens) (UniProt P14735), anyone have it?
7.21

Lab note: need inhibition for `Cc1cc2nc3c(=O)n(Cc4ccccc4)c(=O)[nH]c3nc2cc1N` on Insulin-degrading enzyme (Homo sapiens) (UniProt P14735), anyone have it?
20.4

Lab note: need inhibition for `COc1ccccc1C(=O)OCC(=O)Nc1cccc(S(=O)(=O)NC2=NCCCCC2)c1` on Insulin-degrading enzyme (Homo sapiens) (UniProt P14735), anyone have it?
0.13

Lab note: need inhibition for `Cn1cccc1C(=O)NNC(=O)COc1ccc(Br)cc1` on Insulin-degrading enzyme (Homo sapiens) (UniProt P14735), anyone have it?
2.25

Lab note: need inhibition for `Cn1ncc2c(N3CCCCC3)nc(NCCCO)nc21` on Insulin-degrading enzyme (Homo sapiens) (UniProt P14735), anyone have it?
4.87

Lab note: need inhibition for `COc1ccccc1N(CC(=O)Nc1ccc(C(F)(F)F)cc1)S(C)(=O)=O` on Insulin-degrading enzyme (Homo sapiens) (UniProt P14735), anyone have it?
-2.79

Lab note: need inhibition for `CC1=CC2=NC(=O)/C(=C/c3coc4ccccc4c3=O)C(=N)N2O1` on Insulin-degrading enzyme (Homo sapiens) (UniProt P14735), anyone have it?
62.1

Lab note: need inhibition for `Cc1ccc2c(c1)c1ncnc(N3CCc4ccccc4C3)c1n2C` on Insulin-degrading enzyme (Homo sapiens) (UniProt P14735), anyone have it?
39.7

Lab note: need inhibition for `CCOc1cc(C(=O)Nc2ncccn2)cc(OCC)c1OCC` on Insulin-degrading enzyme (Homo sapiens) (UniProt P14735), anyone have it?
-0.15

Lab note: need inhibition for CCOC(=O)C(CC)/C(C)=N\NC(=O)c1cccc(C)c1 (stereo not drawn) on Insulin-degrading enzyme (Homo sapiens) (UniProt P14735), anyone have it?
-1

Lab note: need inhibition for `CCOc1cc(-c2conc2N)cc(OCC)c1OCC` on Insulin-degrading enzyme (Homo sapiens) (UniProt P14735), anyone have it?
0.37
